Task for the reader: assign each of the following compounds its reported Antibacterial activity of the compound of Formula I, ATCC25922.
# Test system: ATCC25922 strain (Escherichia coli)
# test-details: Broth microdilution, antibacterial activity of the compound used alone
# Assay type: cell-based
Numbers only, in µg/mL.

Example compounds with recorded Antibacterial activity of the compound of Formula I, ATCC25922:
Antibacterial activity of the compound of Formula I, ATCC25922 in this record for Fc1ccc(-c2csc(N=C3NCCCN3)n2)c(Oc2ccc(Cl)cc2Cl)c1 : 256

Antibacterial activity of the compound of Formula I, ATCC25922 in this record for Cc1cc(-c2csc(N=C3NCCCN3)n2)cc(C)c1O : 256

Antibacterial activity of the compound of Formula I, ATCC25922 in this record for NC(N)=Nc1nc(-c2cccc(Cl)c2)cs1 : 256

Antibacterial activity of the compound of Formula I, ATCC25922 in this record for CNC(=O)c1ccc(-c2ccncn2)c(-c2csc(N=C3NCCCN3)n2)c1 : 256

Continue with the compound presented below.
Antibacterial activity of the compound of Formula I, ATCC25922 in this record for CCc1sc(N=C2NCCCN2)nc1-c1cc(C)c(F)c(C)c1 : 128

----------
Task for the reader: assign each of the following molecules its reported Synergistic activity (FIC value) ATCC19606.
# Tested on: ATCC19606 strain (Acinetobacter baumannii)
# test-details: Checkerboard antibacterial synergistic activity test with polymyxin E (FIC)
# Assay type: cell-based
# Parameters: key: FIC≤0.5 synergy; 0.5–1 additive; 1–2 indifferent; ≥2 antagonism
# conditions: combined with polymyxin E
# Method: Polymyxin E was diluted in sterile MH broth medium to concentrations of 16, 8, 4, 2, 1, 0.5, 0.25, 0.125, 0.0625, 0.031, and 0.015 μg/ml, and the drug to be tested was diluted to concentrations of 256, 128, 64, 32, 16, 8, and 4 μg/ml. […] Fractional Inhibitory Concentration (FIC) is calculated as follows: […]
Numbers only.

I would be grateful if you could provide Synergistic activity (FIC value) ATCC19606 for each of the following entries.
1. CS(=O)(=O)Nc1cccc(-c2csc(N=C(N)N)n2)c1 [Compound I-32]
2. Cc1cccc2cccc(-c3csc(N=C(N)N)n3)c12 [Compound I-57]
3. CSc1cc2c(Cl)cccn2c1-c1c[nH]c(N=C(N)N)n1 [Compound I-129]

*A*
[0.25, 0.3, 0.31]

I would be grateful if you could provide Synergistic activity (FIC value) ATCC19606 for each of the following entries.
1. C[Si](C)(C)c1ccc(-c2csc(N=C(N)N)n2)cc1 [Compound I-22]
2. NC(N)=Nc1nc(-c2cc(I)c(O)c(I)c2)co1 [Compound I-35]

*A*
[0.75, 0.13]

----------
# Test system: ATCC19606 strain (Acinetobacter baumannii)
# test-details: Checkerboard antibacterial synergistic activity test with polymyxin E (FIC)
# Format: cell-based
# Set-up: key: FIC≤0.5 synergy; 0.5–1 additive; 1–2 indifferent; ≥2 antagonism
# conditions: combined with polymyxin E
Task for the reader: assign each of the following molecules its reported Synergistic activity (FIC value) ATCC19606.
Answers are plain numbers.

Example molecules with recorded Synergistic activity (FIC value) ATCC19606:
Synergistic activity (FIC value) ATCC19606 in this record for NC(N)=Nc1nc(-c2cccc(NC(=O)Nc3ccc(Cl)cc3Cl)c2)c(Cl)s1 : 0.38

Synergistic activity (FIC value) ATCC19606 in this record for Cc1ccccc1Oc1ccccc1-c1nc(N=C2NCCCN2)oc1Cl : 0.31

I would be grateful if you could provide Synergistic activity (FIC value) ATCC19606 for each of the following entries.
1. Cc1ccc(Oc2cccc(-c3coc(N=C(N)N)n3)c2)c(C)c1
2. COc1ccc(Oc2ccccc2-c2csc(N=C(N)N)n2)c(OC)c1
3. Cc1sc(N=C(N)N)nc1-c1cccc2ccoc12
4. CCc1oc(N=C2NCCCN2)nc1-c1c(SC)cc2cc(Cl)cc(Cl)n12
5. CC(C)=CCOc1ccc(-c2csc(N=C(N)N)n2)cc1
6. COc1ccc(Oc2cccc(-c3csc(N=C(N)N)n3)c2)c(OC)c1
7. Nc1cc(Oc2ccccc2)cc(-c2c[nH]c(N=C3NCCCN3)n2)c1

*A*
1: 0.38; 2: 0.04; 3: 0.26; 4: 0.31; 5: 0.16; 6: 0.31; 7: 0.26
